All values here come from PubChem BioAssay AID192.

System: BDF1 mice, B16 melanoma ip, median survival T/C
Test Details: NCI In Vivo Anticancer Drug Screen. Data for tumor model B16 Melanoma (intraperitoneal) in B6D2F1 (BDF1) mice
Measurement Conditions: endpoint: median survival time; dose: 75.0 mg/kg/injection; schedule: Q01DX009 (ip); vehicle: Klucel (hydroxypropylcellulose) (HPC); higher = longer survival
Inconclusive results and toxic doses are left out.
Metric: T/C

// CC(C)(C)OC(=O)C(CSSCC(NC(=O)OCc1ccccc1)C(=O)OC(C)(C)C)NC(=O)OCc1ccccc1 (stereo not drawn) : T/C value = 94 % of control

Field T/C (entry COc1cc2c(cc1OC)C(OC)N(C)c1c-2ccc2cc(OC)c(OC)cc12 (stereo not drawn) ) reads 95 % of control

Quick note, T/C for Cc1ncc([N+](=O)[O-])n1CCO landed at 115 % of control

The measured T/C associated with C=C(C)C1CCC2(C=O)CCC3(C)C(CCC4C5(C)CCC(O)C(C)(C)C5CCC43C)C12 (stereo not drawn) reads 97 % of control

Lookup result for Cn1c(O)c(C=N)c(=O)[nH]c1=O ; measured T/C: 90 % of control

Please fill in: T/C reported for Nc1ccc(F)cc1[N+](=O)[O-] = 122 % of control

Lookup result for COc1ccc(/C=C/c2cnc3ccccc3n2)cc1OC ; measured T/C: 100 % of control

Record Cc1c(Cl)cccc1NC(=O)c1ccc(Cl)cc1 . Reported T/C: 94 % of control

###

Test system: BDF1 mice, B16 melanoma ip, median survival T/C
Test Details: NCI In Vivo Anticancer Drug Screen. Data for tumor model B16 Melanoma (intraperitoneal) in B6D2F1 (BDF1) mice
Measurement Conditions: endpoint: median survival time; dose: 2.0 mg/kg/injection; schedule: Q01DX009 (ip); vehicle: saline
Inconclusive results and toxic doses are left out. Rule for the calls: active = survival T/C of 150% or more; inactive = T/C below 125% in these data.
Pick one and only one: active, inactive

Test call, this molecule: COC1C(O)C(C)OC(OC2CC(O)C3(C)C(CCC4C3CCC3(C)C(C5=CC(=O)OC5)CCC43O)C2)C1O (stereo unspecified) (tested in a mixture with another compound) inactive

Any idea what this test logged for O=C1OC(C(O)CO)C(O)=C1O (stereo unspecified) ? inactive

Call for entry CCN(CC)CC#N : inactive

Identify the outcome logged in this assay for the molecule shown: COc1cc(NS(C)(=O)=O)ccc1Nc1c2ccccc2nc2c(C)cccc12 active

For this molecule, state the assay outcome: NC(=O)c1ccc(N)nc1 inactive

Recorded test outcome, item CCCCCCCCCCCCCCCC[N+](C)(C)C inactive

###

Test system: BDF1 mice, B16 melanoma ip, median survival T/C
Test Details: NCI In Vivo Anticancer Drug Screen. Data for tumor model B16 Melanoma (intraperitoneal) in B6D2F1 (BDF1) mice
Measurement Conditions: endpoint: median survival time; dose: 25.0 mg/kg/injection; schedule: Q01DX009 (ip); vehicle: saline with Tween-80; higher = longer survival
Toxic doses and inconclusive results are not listed.
Metric: T/C

Note to self: T/C recorded for CC(=O)Nc1cc2c(cc1Br)-c1ccccc1C2O (configuration not stated) was 102 % of control

Reported T/C for BrC[P+](CBr)(CBr)CBr was 105 % of control

What the record says about CC(C)(C)c1ccc(C(=O)C2CC2)cc1 : T/C is 94 % of control

Just so you know, measured T/C for O=C(O)C1C(C(=O)O)C2(Cl)C(Cl)=C(Cl)C1(Cl)C2(Cl)Cl.[Fe] (configuration not stated) came out at 93 % of control

Entry CCN(C(=O)Nc1ccccc1)c1ccccc1C ; T/C = 94 % of control

T/C reported for this compound C[Si](C)(C)O/C=C1\CCCCC1=O : 92 % of control

# compound O=[N+]([O-])c1ccc([I+]c2ccccc2)cc1 ; its T/C = 112 % of control

// sample Cc1[nH]c(=O)[nH]c(=O)c1NC(=O)c1ccccc1[N+](=O)[O-] , its T/C was 102 % of control

Entry C=C1C(=O)OC2C1CC1OC2C(C)CCC/C(C)=C\CCC1(C)O (configuration not stated) , T/C reported as 101 % of control

Data point: C1CC[N-]CC1.C1CC[N-]CC1.C1CC[N-]CC1.[Cl][Rh]([Cl])[Cl] ; T/C = 87 % of control

The compound listed as CCOC(=O)c1[nH]c(C#N)c(C(=O)OCC)c1C has a reported T/C of 95 % of control

According to the records, this compound CNC(=O)n1c(N)nc(-c2ccccc2)c1-c1ccccc1 displays T/C of 106 % of control

###

Tested on: BDF1 mice, B16 melanoma ip, median survival T/C
Test Details: NCI In Vivo Anticancer Drug Screen. Data for tumor model B16 Melanoma (intraperitoneal) in B6D2F1 (BDF1) mice
Measurement Conditions: endpoint: median survival time; dose: 25.0 mg/kg/injection; schedule: Q01DX009 (ip); vehicle: saline with Tween-80; higher = longer survival
Inconclusive results and toxic doses are left out.
Metric: T/C

Tested system BDF1 mice, B16 melanoma ip, median survival T/C; T/C recorded for Nc1ccc(S(=O)(=O)N/N=C/c2ccccc2[N+](=O)[O-])cc1 was 105 % of control

Result for Cc1ccc(NC(=O)COc2ccc(Cl)cc2)cc1Cl , tested on BDF1 mice, B16 melanoma ip, median survival T/C, T/C: 87 % of control

Tested on BDF1 mice, B16 melanoma ip, median survival T/C: CCOC(=O)C(N)C[S][Sn]([CH3])([CH3])[Cl] (centres undefined) . Observed T/C: 100 % of control

Summary: O=CN(SSN(C=O)C1CCCCC1)C1CCCCC1 , BDF1 mice, B16 melanoma ip, median survival T/C, T/C = 100 % of control

The compound O=C(Nc1ccc([N+](=O)[O-])cc1)Nc1ccc([N+](=O)[O-])c(C(F)(F)F)c1 , when measured on BDF1 mice, B16 melanoma ip, median survival T/C, yielded T/C of 90 % of control

Test item O=S(=O)(O)c1ccc2cccc(N=Nc3c(O)ccc4ccccc34)c2c1 ; BDF1 mice, B16 melanoma ip, median survival T/C; reported T/C was 102 % of control

Summary: Cc1cnnc2ccccc12 , BDF1 mice, B16 melanoma ip, median survival T/C, T/C = 98 % of control

The reported T/C value, BDF1 mice, B16 melanoma ip, median survival T/C, for CC(C)(C)C(=O)CC(=O)C(F)(F)C(F)(F)C(F)(F)F.[Ag] reads 86 % of control

Measured T/C for this entry CCOC(=O)c1cnc(NN)nc1Nc1cc(Cl)cc(Cl)c1 on BDF1 mice, B16 melanoma ip, median survival T/C: 91 % of control

Record CC(C)c1ccc(O)c(O)c1 has BDF1 mice, B16 melanoma ip, median survival T/C T/C equal to 104 % of control

// assay BDF1 mice, B16 melanoma ip, median survival T/C, entry CCS(=O)(=O)OCCCl , T/C value = 104 % of control

For the compound Brc1ccc(-c2csc(Nc3nc(-c4ccc(Br)cc4)cs3)n2)cc1 , the measured T/C on BDF1 mice, B16 melanoma ip, median survival T/C was 122 % of control

Note to self: T/C of CCC/C=C/C=C/C1CC(O)C(O)C(=O)C1CO (centres undefined) with BDF1 mice, B16 melanoma ip, median survival T/C was 104 % of control

GET /values?item= Cc1ccc2no[n+]([O-])c2c1[N+](=O)[O-] &system= BDF1 mice, B16 melanoma ip, median survival T/C returns T/C: 93 % of control

###

Tested on: BDF1 mice, B16 melanoma ip, median survival T/C
Test Details: NCI In Vivo Anticancer Drug Screen. Data for tumor model B16 Melanoma (intraperitoneal) in B6D2F1 (BDF1) mice
Measurement Conditions: endpoint: median survival time; dose: 100.0 mg/kg/injection; schedule: Q01DX009 (ip); vehicle: Klucel (hydroxypropylcellulose) (HPC); higher = longer survival
Toxic doses and inconclusive results are not listed.
Metric: T/C

Lab entry: BDF1 mice, B16 melanoma ip, median survival T/C assay, compound CC(=O)CC(C)=O.CC(=O)CC(C)=O.CC(=O)CC(C)=O.[Cr] , T/C = 97 % of control

Noted T/C for CCOC(=O)C1=NN(c2ccccc2)C(=O)C1 , tested on BDF1 mice, B16 melanoma ip, median survival T/C: 97 % of control

T/C on BDF1 mice, B16 melanoma ip, median survival T/C for COc1cc(OC)c(NC(=O)c2ccccc2Cl)cc1Cl is 97 % of control

Case CC(C)N(C(=O)c1ccccc1Cl)c1ccccc1 , BDF1 mice, B16 melanoma ip, median survival T/C, T/C recorded as 106 % of control

Entry N#Cc1ccc(/C=C/C(=O)c2ccccc2)cc1 ; assay system BDF1 mice, B16 melanoma ip, median survival T/C; T/C recorded at 101 % of control

Entry CCCCCCCC(O)CCC (stereo unspecified) under BDF1 mice, B16 melanoma ip, median survival T/C had T/C of 105 % of control

For the compound COC(=O)[C@@H]1[C@H](O)[C@H](C)[C@H](O)[C@@](C)(O)/C=C\C=C(C)C(=O)Nc2c(C)c(OC(C)=O)c3c(c2O)C(=O)C(C)=C2OCOC(=C23)C(C)=C[C@@](C)(O)[C@H](O)[C@@H](C)[C@H]1OC(C)=O , the measured T/C on BDF1 mice, B16 melanoma ip, median survival T/C was 95 % of control

Log: BDF1 mice, B16 melanoma ip, median survival T/C, compound Cc1cc(C)cc(OCC2CNC(=O)O2)c1 (stereo unspecified) , T/C = 91 % of control

Record CSCCC(NC(=O)OCC1c2ccccc2-c2ccccc21)C(=O)O (stereo unspecified) has BDF1 mice, B16 melanoma ip, median survival T/C T/C equal to 98 % of control

Field T/C (BDF1 mice, B16 melanoma ip, median survival T/C), entry Cc1cc(Cl)ccc1NC(=O)c1ccccc1Cl : 114 % of control

Form: item COc1ccccc1OCC(O)COC(N)=O (stereo unspecified) ; test system BDF1 mice, B16 melanoma ip, median survival T/C; T/C: 105 % of control
